# Measurement Target: leukotriene D4 (LTD4) induced contraction of guinea pig tracheal tissues (Cavia porcellus, UniProt Q2NNR5)
# Construct: Guinea pig (adult male albino Hartley strain) tracheal spiral strips; from tissue; host or cells: guinea pig trachea (spiral strips, adult male albino Hartley strain)
# Sequence (Q2NNR5 1-340): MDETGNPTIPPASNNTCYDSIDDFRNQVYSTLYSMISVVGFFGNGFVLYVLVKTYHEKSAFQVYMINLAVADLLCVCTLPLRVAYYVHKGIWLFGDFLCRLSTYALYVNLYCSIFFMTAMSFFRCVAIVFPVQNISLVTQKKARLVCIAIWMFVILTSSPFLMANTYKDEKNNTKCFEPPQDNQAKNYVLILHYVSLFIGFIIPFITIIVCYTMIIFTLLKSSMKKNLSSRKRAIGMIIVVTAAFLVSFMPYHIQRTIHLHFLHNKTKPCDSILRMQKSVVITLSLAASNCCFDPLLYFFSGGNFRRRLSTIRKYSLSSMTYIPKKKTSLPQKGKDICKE
# Test Method Notes: in vitro inhibition of LTD4 induced contraction of guinea pig tracheal spiral strips
# Type: cell-based, guinea pig (adult male albino Hartley strain)
# Particulars: guinea pig trachea, LTD4 agonist, 30 min pretreatment with test compound
Assay Metric: Kb (nM)

CCCc1c(OCCCCCOc2ccccc2C(SCCC(=O)O)SCCC(=O)O)ccc(C(C)=O)c1O ... 251
O=C(O)CCSC(SCCC(=O)O)c1ccccc1CCCCCCCCCCCC(F)(F)F [2 2 C11 H22 CF3 H] ... 631
O=C(O)CCSC(SCCC(=O)O)c1cccc(CCCCCCCCc2ccccc2)c1 [2 2 H C8 H16 phenyl] ... 1000
CCCCCCCCCC/C=C/c1ccccc1C(SCCC(=O)O)SCCC(=O)O [2 2 CHCHC10 H21 trans H] ... 1580
